IC50 values for the compounds below.
# target.under.test: human Nav1.7 (Homo sapiens (Human))
# Sequence (Q15858 other isoform, or with tags, fused parts or gaps): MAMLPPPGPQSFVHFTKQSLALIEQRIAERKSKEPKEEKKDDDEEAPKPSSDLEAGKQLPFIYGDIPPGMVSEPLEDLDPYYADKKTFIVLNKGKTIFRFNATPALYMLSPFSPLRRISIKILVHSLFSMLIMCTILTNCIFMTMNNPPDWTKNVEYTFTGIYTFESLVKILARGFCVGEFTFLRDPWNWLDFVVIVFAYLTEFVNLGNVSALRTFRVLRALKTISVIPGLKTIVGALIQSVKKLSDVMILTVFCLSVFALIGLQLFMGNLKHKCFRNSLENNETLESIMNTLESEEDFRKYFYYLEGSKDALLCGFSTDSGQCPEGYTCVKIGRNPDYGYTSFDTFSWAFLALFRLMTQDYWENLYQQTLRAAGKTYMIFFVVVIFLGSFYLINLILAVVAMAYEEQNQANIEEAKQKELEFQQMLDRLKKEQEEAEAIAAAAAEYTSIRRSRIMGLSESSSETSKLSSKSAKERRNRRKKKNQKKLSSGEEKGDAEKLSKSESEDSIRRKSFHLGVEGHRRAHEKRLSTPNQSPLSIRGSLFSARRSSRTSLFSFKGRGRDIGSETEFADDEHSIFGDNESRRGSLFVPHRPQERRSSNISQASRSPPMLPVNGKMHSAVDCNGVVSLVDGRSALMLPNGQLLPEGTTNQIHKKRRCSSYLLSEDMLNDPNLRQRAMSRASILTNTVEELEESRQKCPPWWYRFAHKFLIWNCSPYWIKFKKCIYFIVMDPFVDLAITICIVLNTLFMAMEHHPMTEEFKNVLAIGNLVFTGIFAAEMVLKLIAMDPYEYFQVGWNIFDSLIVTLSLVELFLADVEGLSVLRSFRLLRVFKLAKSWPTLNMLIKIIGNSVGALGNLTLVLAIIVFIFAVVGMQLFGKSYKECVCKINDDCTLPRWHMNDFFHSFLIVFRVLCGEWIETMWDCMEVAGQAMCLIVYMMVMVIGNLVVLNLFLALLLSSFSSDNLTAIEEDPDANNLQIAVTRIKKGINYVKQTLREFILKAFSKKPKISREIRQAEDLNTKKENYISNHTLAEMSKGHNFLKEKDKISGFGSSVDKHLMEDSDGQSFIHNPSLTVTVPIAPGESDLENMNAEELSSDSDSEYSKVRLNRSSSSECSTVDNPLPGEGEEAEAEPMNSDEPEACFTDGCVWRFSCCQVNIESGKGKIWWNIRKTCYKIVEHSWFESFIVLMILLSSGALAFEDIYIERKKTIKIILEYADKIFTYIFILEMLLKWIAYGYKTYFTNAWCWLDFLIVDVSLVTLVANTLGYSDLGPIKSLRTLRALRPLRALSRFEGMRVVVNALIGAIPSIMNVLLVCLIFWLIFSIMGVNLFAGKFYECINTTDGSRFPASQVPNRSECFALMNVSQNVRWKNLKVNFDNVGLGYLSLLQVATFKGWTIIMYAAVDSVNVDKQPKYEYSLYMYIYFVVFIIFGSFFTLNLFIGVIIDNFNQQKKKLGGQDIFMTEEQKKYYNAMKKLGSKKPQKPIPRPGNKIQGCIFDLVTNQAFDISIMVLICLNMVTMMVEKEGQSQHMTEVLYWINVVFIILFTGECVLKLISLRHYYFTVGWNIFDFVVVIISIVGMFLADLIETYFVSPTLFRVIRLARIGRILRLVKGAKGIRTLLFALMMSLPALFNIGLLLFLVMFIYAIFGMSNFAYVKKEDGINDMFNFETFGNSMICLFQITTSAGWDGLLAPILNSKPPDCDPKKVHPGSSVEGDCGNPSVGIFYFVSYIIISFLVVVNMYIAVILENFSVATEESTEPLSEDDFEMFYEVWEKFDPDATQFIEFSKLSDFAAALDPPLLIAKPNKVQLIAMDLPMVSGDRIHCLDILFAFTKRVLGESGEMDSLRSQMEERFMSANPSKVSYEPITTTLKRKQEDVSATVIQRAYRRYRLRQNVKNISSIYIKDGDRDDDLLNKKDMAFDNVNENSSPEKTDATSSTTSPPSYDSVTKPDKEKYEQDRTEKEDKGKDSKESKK
# method.notes: FLIPR or FLIPR TETRA sodium dye assay with KCl and test article pre-incubation
# Assay type: cell-based
# setup.conditions: read-out: Nav1.7 IC50 (μM) ± SEM
// note: answer is a bare numeric in µM

>>> endpoint_result("N#Cc1ccc(Oc2ccc(-c3cc([C@@H](O)CO)cc(C(N)=O)n3)cc2)cc1C(F)(F)F")
1.13

Input line: Suppose we examine the compound CN(c1ccccc1)c1cc(C(=O)O)nc(-c2ccc(Oc3ccc(F)cc3)cc2)c1 ; what IC50 value has been reported?
Output line: 0.68

Input line: Suppose we examine the compound N#Cc1cc(Oc2ccc(-c3cccc([C@H](O)CO)n3)cc2)ccc1C(F)(F)F ; what IC50 value has been reported?
Output line: 2.8

Input line: Suppose we examine the compound N#Cc1ccc(Oc2ccc(-c3cccc([C@H](O)CO)n3)cc2)cc1 ; what IC50 value has been reported?
Output line: 0.27

Input line: Suppose we examine the compound C[C@H](Nc1cc(C(N)=O)nc(-c2ccc(Oc3ccc(F)cc3)cc2)c1)C(N)=O ; what IC50 value has been reported?
Output line: 0.73

* * *

# target.under.test: human Nav1.7 (Homo sapiens (Human))
# method.notes: FLIPR or FLIPR TETRA sodium dye assay with KCl and test article pre-incubation
# Format: cell-based
# setup.conditions: read-out: Nav1.7 IC50 (μM) ± SEM
experimental.endpoint: log10(IC50) (log10 of the value in µM)
For clarity, the numbers are log10 values of IC50 expressed in µM.

Examples from the recorded data:
>>> endpoint_result("OC[C@H](O)c1cccc(-c2ccc(Oc3ccc(C(F)(F)F)cc3)cc2)n1 [compound 5]")
-0.80
>>> endpoint_result("NC(=O)c1cc(N2CCC(C(=O)O)CC2)cc(-c2ccc(Oc3ccc(F)cc3)cc2)n1 [compound 59]")
0.36
>>> endpoint_result("OC[C@@H](O)c1cccc(-c2ccc(Oc3ccc(C(F)(F)F)cc3)cc2)n1 [compound 4]")
-0.92
>>> endpoint_result("O=S(=O)(Nc1ccc(F)cc1)c1ccc(-c2cccc([C@H](O)CO)n2)cc1 [compound 124]")
0.40
>>> endpoint_result("NC(=O)c1cc(NCC2CCNCC2)cc(-c2ccc(Oc3ccc(F)cc3)cc2)n1 [compound 57]")
-0.08

Input line: Value wanted: log10(IC50) (human Nav1.7 (Homo sapiens (Human))) of entry N#Cc1ccc(Oc2ccc(-c3cccc([C@H](O)CO)n3)cc2)c(C(F)(F)F)c1 [compound 22]
Output line: 0.52

Input line: Value wanted: log10(IC50) (human Nav1.7 (Homo sapiens (Human))) of entry CS(=O)(=O)c1ccc(Oc2ccc(-c3cccc(CNCCN4CCNC4=O)n3)cc2)cc1 [compound 71]
Output line: -0.46

Input line: Value wanted: log10(IC50) (human Nav1.7 (Homo sapiens (Human))) of entry CN(c1ccc(C(=O)O)cc1)c1cc(-c2ccc(Oc3ccc(F)cc3)cc2)cc(C(=O)O)n1 [compound 120]
Output line: 0.97

Input line: Value wanted: log10(IC50) (human Nav1.7 (Homo sapiens (Human))) of entry N#Cc1ccc(Oc2ccc(-c3cc([C@H](O)CO)cc(C(N)=O)n3)cc2)c(C(F)(F)F)c1 [compound 35]
Output line: -0.40

Input line: Value wanted: log10(IC50) (human Nav1.7 (Homo sapiens (Human))) of entry N#Cc1cc(Oc2ccc(-c3cccc(C(O)CO)n3)cc2)ccc1C(F)(F)F (centres unmarked) [compound 12]
Output line: -0.05

Input line: Value wanted: log10(IC50) (human Nav1.7 (Homo sapiens (Human))) of entry NC(=O)c1cc(NCCN2CCNC2=O)cc(-c2ccc(Oc3ccc(F)cc3)cc2)n1 [compound 58]
Output line: 0.20

Input line: Value wanted: log10(IC50) (human Nav1.7 (Homo sapiens (Human))) of entry NC(=O)c1cc(NCc2ccncc2)cc(-c2ccc(Oc3ccc(F)cc3)cc2)n1 [compound 46]
Output line: -0.32

Input line: Value wanted: log10(IC50) (human Nav1.7 (Homo sapiens (Human))) of entry NC(=O)c1cc(C2=CCNCC2)cc(-c2ccc(Oc3ccc(F)cc3)cc2)n1 [compound 122]
Output line: -0.85

Input line: Value wanted: log10(IC50) (human Nav1.7 (Homo sapiens (Human))) of entry O=C1NCCN1CCNCc1cccc(-c2ccc(Oc3ncc(C(F)(F)F)cc3Cl)cc2)n1 [compound 66]
Output line: -0.89

Input line: Value wanted: log10(IC50) (human Nav1.7 (Homo sapiens (Human))) of entry NC(=O)c1cc(-c2ccc(-c3ccc(F)cc3)cc2)cc([C@H](O)CO)n1 [compound 160]
Output line: -0.31
